Values from patent US20220177587A1

# target_entity: huCTLA4 (Homo sapiens, UniProt P16410)
# Sequence (P16410 36-223): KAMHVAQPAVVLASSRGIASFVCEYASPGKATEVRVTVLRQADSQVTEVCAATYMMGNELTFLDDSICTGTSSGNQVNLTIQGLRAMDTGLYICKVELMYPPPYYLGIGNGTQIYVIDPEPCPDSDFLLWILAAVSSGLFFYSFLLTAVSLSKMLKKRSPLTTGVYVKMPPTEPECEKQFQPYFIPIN
# experiment_description: Flow binding to CHO cells stably expressing CTLA4
# Parameters: huCTLA4 and huPD-L1, full-length mammalian surface expression constructs were generated; expressed in transfected cells; host or cells: CHO cells, lentiviral transduction, sorted to >98% purity
# condition_summary: Table E11; 33.3 nM; listed as WT CD80 ECD-Fc = 1.0
# Procedure: Binding of selected immunomodulatory fusion proteins to cognate binding partners was assessed. […] Cells were sorted in a Bio-Rad S3 Cell Sorter (Bio-Rad Corp., USA) to >98% purity. […] For staining and analysis by flow cytometry, 100,000 cells of appropriate transfected cells were plated in 96-well round bottom plates. […] Cells were then washed twice with 150 μL/well stain buffer, fixed in 2% formaldehyde/PBS, and analyzed on Intellicyt flow cytometer (Intellicyt Corp., USA). […]
parameter: CTLA4 Fold change to WT CD80

molecule	measurement
E24D/E35D/M47L/V68M/E95V/L97Q (protein, UniProt P33681 35-288, looked up, variant E24D E35D M47L V68M E95V L97Q) T-lymphocyte activation …: VIHVTKEVKEVATLSCGHNVSVEDLAQTRIYWQKDKKMVLTMMSGDLNIWPEYKNRTIFDITNNLSIMILALRPSDEGTYECVVLKYEKDAFKRVHQAEVTLSVKADFPTPSISDFEIPTSNIRRIICSTSGGFPEPHLSWLENGEELNAINTTVSQDPETELYAVSSKLDFNMTTNHSFMCLIKYGHLRVNQTFNWNTTKQEHFPDNLLPSWAITLISVNGIFVICCLTYCFAPRCRERRRNERLRRESVRPV	8.8
